Listed here are molecules together with their documented pIC50.
# Tested on: HCT-15 cell lines
# assay-notes: MTT cytotoxicity assay, HCT-15
# Format: cell-based, human
# setup-conditions: Homo sapiens, HCT-15; 72 h (3-Days) drug exposure, MTT; read-out: IC50 HCT-15
Please express pIC50 as -log10 of the molar concentration.

Examples with answers:
INSERT INTO measurements (molecule, measurement) VALUES
  ('Cc1ccccc1NC(=O)N1CCN(Cc2nc3ccccc3c(=O)[nH]2)CC1 [A10]', 4.80),
  ('O=C(Nc1ccccc1C(F)(F)F)N1CCN(Cc2nc3ccccc3c(=O)[nH]2)CC1 [A13]', 4.69),
  ('Cc1cccc(NC(=O)N2CCN(Cc3nc4ccccc4c(=O)[nH]3)CC2)c1F [A21]', 4.55),
  ('O=C(Nc1cccc(F)c1F)N1CCN(Cc2nc3ccccc3c(=O)[nH]2)CC1 [A19]', 4.72),
  ('Cc1ccc(F)cc1NC(=O)N1CCN(Cc2nc3ccccc3c(=O)[nH]2)CC1 [A30]', 4.74);

Now consider the entry below.
Give the measured pIC50 for Cc1ccc(F)c(NC(=O)N2CCN(Cc3nc4ccccc4c(=O)[nH]3)CC2)c1 [A23]
4.58

Reference for the values: paper PMC10974284
